biological target: Syndecan-4 (Mus musculus) (UniProt O35988); assay: Binding affinity to syndecan 4 in mouse NIH/3T3 cells assessed as stimulation of beta 1 integrin-mediated cell adhesion at 50 ug/ml […] by microscopic analysis; format: cell-based; details: NIH3T3
The source made the active and inactive calls. The rule behind the calls is not given here.
Hello, when you answer, please use one of the following outcomes: active, inactive

Worked examples, 2 substances total:
H-RSTDLPGLKAATHATITIRGVKC-OH active
H-RSTDLPGLAAATHYTITIRGVKC-OH inactive

Attention now shifts to the item below.
Recorded test outcome, item H-RSTDLPGLKAATHYTITIRGVKC-OH
active

----------
Target: Syndecan-4 (Mus musculus) (UniProt O35988)
Sequence (whole entry): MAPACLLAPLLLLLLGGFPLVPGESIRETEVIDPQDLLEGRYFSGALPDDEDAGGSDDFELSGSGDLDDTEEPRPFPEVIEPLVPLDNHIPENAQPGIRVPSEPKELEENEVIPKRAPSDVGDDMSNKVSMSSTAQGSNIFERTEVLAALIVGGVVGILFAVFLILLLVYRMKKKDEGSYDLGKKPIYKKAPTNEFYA
Assay: Binding affinity to syndecan 4 in mouse NIH/3T3 cells assessed as stimulation of beta 1 integrin-mediated cell spreading at 50 ug/ml […] by microscopic analysis
Assay type: cell-based
Settings: NIH3T3
Calls of active or inactive are those of the source. The rule behind the calls is not given here.
Hello, when you answer, please use one of the following outcomes: active, inactive

Worked examples, 5 substances total:
H-RSTDLPGLKAATHYTITIRGVKC-OH active
H-RSTDLPGLKAATHYTITIAGVKC-OH inactive
H-RSTDLPGLKAATHYTATIRGVKC-OH inactive
H-RSTDLPGLKAATHYTITARGVKC-OH inactive
H-ASTDLPGLKAATHYTITIRGVKC-OH inactive

Recorded test outcome, item H-RSTDLPGLKAATHATITIRGVKC-OH
inactive

Recorded test outcome, item H-RSTDLPGLAAATHYTITIRGVKC-OH
inactive

----------
target: Syndecan-4 (Mus musculus); test: Binding affinity to syndecan 4 in mouse NIH/3T3 cells assessed as induction of cell proliferation at 25 to 50 ug/ml after 2 days by MTT assay; assay type: cell-based; conditions: NIH3T3
Active and inactive are the calls of the source. No cut-off for these calls is given here.
Hello, when you answer, please use one of the following outcomes: active, inactive

Recorded test outcome, item H-RSTDLPGLKAATHYTITARGVKC-OH
inactive

Recorded test outcome, item H-RSTDLPGLKAATHYTATIRGVKC-OH
inactive

Recorded test outcome, item H-RSTDLPGLKAATHYTITIAGVKC-OH
active

Recorded test outcome, item H-RSTDLPGLKAATHYTITIRGVKC-OH
active

----------
molecular target: Syndecan-4 (Mus musculus); assay: Binding affinity to syndecan 4 in mouse NIH/3T3 cells assessed as stimulation of beta 1 integrin-mediated cell adhesion at 50 ug/ml […] by microscopic analysis; format: cell-based; conditions: NIH3T3
The source made the active and inactive calls. The calls are words filed in the database; no cut-off is given here.
readout-kind: Activity

H-RSTDLPGLKAATHYTITARGVKC-OH Active
H-RSTDLPGLKAATHYAITIRGVKC-OH Active
H-ASTDLPGLKAATHYTITIRGVKC-OH inactive
H-RSTDLPGLKAATHYTITIAGVKC-OH inactive
H-RSTDLPGLKAATHYTIAIRGVKC-OH Active

Here is the next item to consider.
Please tell me: Activity of H-RSTDLPGLKAATHYTATIRGVKC-OH , system Syndecan-4 (Mus musculus)?
Active
